Tested on: M14
Assay: Cytotoxicity against human M14 cells assessed as cell growth at 10 uM after 72 hrs by SRB assay relative to control
Assay type: functional
Applied Conditions: M14, 72 h, read-out: Activity
Label class 1 when growth at 10 µM is at or above 90%; otherwise label class 0.

Smiles Representation | Assayed Target | Group
O=c1sc2cc(Nc3ncnc4c3cnn4-c3ccccc3)ccc2n1Cc1ccc(Cl)cc1 | M14 | class 0
O=C(NC1CCCCC1)c1ccc(Nc2ncnc3c2cnn3-c2ccccc2)cc1 | M14 | class 0
Clc1ccc(-n2ncc3c(Nc4ccc(OCc5ccccc5)cc4)ncnc32)cc1 | M14 | class 1
c1ccc(COc2ccc(Nc3ncnc4c3cnn4-c3ccccc3)cc2)cc1 | M14 | class 1

Now turn to the next molecule.
Challenge: Identify whether the reported growth at 10 µM of the following molecule is 90% or greater: "Cc1ccc2nc(Nc3ncnc4c3cnn4-c3ccccc3)sc2c1"
Response given: class 1

====

Assayed Target: Mast/stem cell growth factor receptor Kit (Homo sapiens, UniProt P10721)
Sequence (P10721 whole entry): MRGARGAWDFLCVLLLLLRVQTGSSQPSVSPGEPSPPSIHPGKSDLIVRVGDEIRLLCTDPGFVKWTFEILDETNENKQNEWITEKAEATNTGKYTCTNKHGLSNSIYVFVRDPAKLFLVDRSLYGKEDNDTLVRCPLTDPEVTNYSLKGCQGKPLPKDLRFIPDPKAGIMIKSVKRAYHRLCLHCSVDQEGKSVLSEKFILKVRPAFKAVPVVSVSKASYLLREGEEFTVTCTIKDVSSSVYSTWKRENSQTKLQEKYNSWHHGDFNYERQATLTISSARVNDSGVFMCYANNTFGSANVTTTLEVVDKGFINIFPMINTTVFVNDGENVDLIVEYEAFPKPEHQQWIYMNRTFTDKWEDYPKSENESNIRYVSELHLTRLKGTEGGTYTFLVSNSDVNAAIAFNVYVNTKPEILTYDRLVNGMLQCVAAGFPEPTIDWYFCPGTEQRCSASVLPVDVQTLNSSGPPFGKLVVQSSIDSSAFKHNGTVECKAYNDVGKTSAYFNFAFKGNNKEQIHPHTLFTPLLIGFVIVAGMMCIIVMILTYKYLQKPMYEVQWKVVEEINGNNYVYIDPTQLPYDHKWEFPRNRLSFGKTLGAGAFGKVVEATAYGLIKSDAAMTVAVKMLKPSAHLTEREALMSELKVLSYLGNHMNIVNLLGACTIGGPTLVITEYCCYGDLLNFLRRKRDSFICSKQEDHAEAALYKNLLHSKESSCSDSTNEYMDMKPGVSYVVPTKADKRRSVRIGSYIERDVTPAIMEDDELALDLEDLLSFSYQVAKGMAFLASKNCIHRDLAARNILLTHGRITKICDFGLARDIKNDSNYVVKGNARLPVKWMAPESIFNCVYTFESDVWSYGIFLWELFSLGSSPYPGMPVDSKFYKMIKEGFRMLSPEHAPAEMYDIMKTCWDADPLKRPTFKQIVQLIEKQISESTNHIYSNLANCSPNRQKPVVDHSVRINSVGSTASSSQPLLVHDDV
Assay: Inhibition of N-terminal GST-tagged recombinant kit (unknown origin) using poly(Glu:Tyr) as substrate by ELISA-based method
Measured Attribute: pIC50
Scale: pIC50 equals -log10([C]), with [C] in mol/L.

Challenge: Report pIC50 for O=C(Nc1ccc(OC(F)(F)F)cc1)c1sccc1NCc1ccnc2ccccc12 [OSI-930] please.
Response given: 7.10

====

Assay: Cytotoxicity against human MOLT4 cells assessed as cell growth at 10 uM after 72 hrs by SRB assay relative to control
Assay type: functional
Applied Conditions: MOLT-4, 72 h, read-out: Activity
Measured Attribute: growth at 10 µM
Your reply should be a number followed by the unit it is expressed in.

Before answering, review these 4 worked examples.
Smiles Representation | Test Value
c1ccc(COc2ccc(Nc3ncnc4c3cnn4-c3ccccc3)cc2)cc1 | 93.1%
Clc1ccc(-n2ncc3c(Nc4ccc(OCc5ccccc5)cc4)ncnc32)cc1 | 89.6%
O=C(NC1CCCCC1)c1ccc(Nc2ncnc3c2cnn3-c2ccccc2)cc1 | 89.5%
O=c1sc2cc(Nc3ncnc4c3cnn4-c3ccccc3)ccc2n1Cc1ccc(Cl)cc1 | 58.6%

Shifting focus to the molecule that follows.
Challenge: Report growth at 10 µM for "Cc1ccc2nc(Nc3ncnc4c3cnn4-c3ccccc3)sc2c1" please.
Response given: 102%

====

Assay: Cytotoxicity against human SNB75 cells assessed as cell growth at 10 uM after 72 hrs by SRB assay relative to control
Assay type: functional
Applied Conditions: SNB-75, 72 h, read-out: Activity
Catalogue of growth at 10 µM readings, one per entry.
All answers are understood in %, so give the number only.

Before answering, review these 4 worked examples.
Smiles Representation | growth at 10 µM / %
O=c1sc2cc(Nc3ncnc4c3cnn4-c3ccccc3)ccc2n1Cc1ccc(Cl)cc1 | 88.3
Cc1ccc2nc(Nc3ncnc4c3cnn4-c3ccccc3)sc2c1 | 107
O=C(NC1CCCCC1)c1ccc(Nc2ncnc3c2cnn3-c2ccccc2)cc1 | -20.4
c1ccc(COc2ccc(Nc3ncnc4c3cnn4-c3ccccc3)cc2)cc1 | 102

Shifting focus to the molecule that follows.
Challenge: Report growth at 10 µM for "Clc1ccc(-n2ncc3c(Nc4ccc(OCc5ccccc5)cc4)ncnc32)cc1" please.
Response given: 86.4

====

Assay: Cytotoxicity against human SW620 cells assessed as cell growth at 10 uM after 72 hrs by SRB assay relative to control
Type: functional
Applied Conditions: SW-620, 72 h, read-out: Activity
Measured Attribute: growth at 10 µM (%)
All answers are understood in %, so give the number only.

Smiles Representation | growth at 10 µM / %
O=C(NC1CCCCC1)c1ccc(Nc2ncnc3c2cnn3-c2ccccc2)cc1 | 72.9
Cc1ccc2nc(Nc3ncnc4c3cnn4-c3ccccc3)sc2c1 | 100

Challenge: Report growth at 10 µM for "O=c1sc2cc(Nc3ncnc4c3cnn4-c3ccccc3)ccc2n1Cc1ccc(Cl)cc1" please.
Response given: 84.4

Challenge: Try "Clc1ccc(-n2ncc3c(Nc4ccc(OCc5ccccc5)cc4)ncnc32)cc1" next.
Response given: 101

Challenge: Try "c1ccc(COc2ccc(Nc3ncnc4c3cnn4-c3ccccc3)cc2)cc1" next.
Response given: 98.7

====

Assay: Cytotoxicity against human HOP62 cells assessed as cell growth at 10 uM after 72 hrs by SRB assay relative to control
Format: functional
Applied Conditions: HOP-62, 72 h, read-out: Activity
Measured Attribute: growth at 10 µM (%)
All answers are understood in %, so give the number only.

Smiles Representation | Unit Tag | growth at 10 µM
O=c1sc2cc(Nc3ncnc4c3cnn4-c3ccccc3)ccc2n1Cc1ccc(Cl)cc1 | % | 94

Shifting focus to the molecule that follows.
Challenge: Report growth at 10 µM for "O=C(NC1CCCCC1)c1ccc(Nc2ncnc3c2cnn3-c2ccccc2)cc1" please.
Response given: -66.5

====

Assayed Target: Vascular endothelial growth factor receptor 2 (Homo sapiens, UniProt P35968)
Sequence (P35968 whole entry): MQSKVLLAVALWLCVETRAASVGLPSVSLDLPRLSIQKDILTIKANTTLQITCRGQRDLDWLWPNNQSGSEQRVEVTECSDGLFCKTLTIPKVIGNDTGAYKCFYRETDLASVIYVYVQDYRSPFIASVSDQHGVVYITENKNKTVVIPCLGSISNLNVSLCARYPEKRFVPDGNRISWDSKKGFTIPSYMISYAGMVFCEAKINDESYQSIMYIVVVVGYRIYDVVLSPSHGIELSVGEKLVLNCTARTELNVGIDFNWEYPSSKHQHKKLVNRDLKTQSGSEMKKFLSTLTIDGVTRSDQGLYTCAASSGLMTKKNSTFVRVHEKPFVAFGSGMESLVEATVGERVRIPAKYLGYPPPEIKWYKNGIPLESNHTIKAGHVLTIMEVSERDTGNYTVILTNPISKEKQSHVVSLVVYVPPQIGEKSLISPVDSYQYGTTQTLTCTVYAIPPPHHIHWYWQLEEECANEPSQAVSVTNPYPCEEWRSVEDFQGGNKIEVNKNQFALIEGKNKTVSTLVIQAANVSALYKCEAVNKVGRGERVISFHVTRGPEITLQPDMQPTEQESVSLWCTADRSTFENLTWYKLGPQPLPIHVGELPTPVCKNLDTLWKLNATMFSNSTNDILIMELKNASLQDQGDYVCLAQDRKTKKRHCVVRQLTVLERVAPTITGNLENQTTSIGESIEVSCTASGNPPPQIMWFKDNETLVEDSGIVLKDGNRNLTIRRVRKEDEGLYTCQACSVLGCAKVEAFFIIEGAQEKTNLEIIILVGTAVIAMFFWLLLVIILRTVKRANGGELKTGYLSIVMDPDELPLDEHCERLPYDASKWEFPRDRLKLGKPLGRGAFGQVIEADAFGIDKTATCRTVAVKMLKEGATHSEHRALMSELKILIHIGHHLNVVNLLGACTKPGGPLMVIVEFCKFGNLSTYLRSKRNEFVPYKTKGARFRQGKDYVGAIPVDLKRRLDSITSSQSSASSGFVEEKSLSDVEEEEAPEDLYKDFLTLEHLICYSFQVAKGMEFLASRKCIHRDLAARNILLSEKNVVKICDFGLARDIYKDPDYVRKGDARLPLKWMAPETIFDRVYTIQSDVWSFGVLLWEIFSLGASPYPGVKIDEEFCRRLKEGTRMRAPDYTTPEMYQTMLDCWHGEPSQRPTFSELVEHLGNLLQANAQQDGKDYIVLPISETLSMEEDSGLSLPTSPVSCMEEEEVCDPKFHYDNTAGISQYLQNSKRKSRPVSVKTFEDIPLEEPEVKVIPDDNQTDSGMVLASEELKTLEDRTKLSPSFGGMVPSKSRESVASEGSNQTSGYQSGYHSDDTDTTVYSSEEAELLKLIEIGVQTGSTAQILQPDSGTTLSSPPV
Assay: Inhibition of VEGFR2 (unknown origin) using poly(Glu:Tyr) as substrate by ELISA-based method
Measured Attribute: pIC50
Scale: pIC50 equals -log10([C]), with [C] in mol/L.

Challenge: Query pIC50 on Vascular endothelial growth factor receptor 2 (Homo sapiens, UniProt P35968) for "O=C(Nc1ccc(Oc2ncnc3[nH]ncc23)cc1)Nc1ccc(Cl)c(C(F)(F)F)c1"
Response given: 5.65

====

Assay: Cytotoxicity against human OVCAR4 cells assessed as cell growth at 10 uM after 72 hrs by SRB assay relative to control
Type: functional
Applied Conditions: OVCAR-4, 72 h, read-out: Activity
Catalogue of growth at 10 µM readings, one per entry.
All answers are understood in %, so give the number only.

Smiles Representation | Unit Tag | growth at 10 µM
O=c1sc2cc(Nc3ncnc4c3cnn4-c3ccccc3)ccc2n1Cc1ccc(Cl)cc1 | % | 87
Cc1ccc2nc(Nc3ncnc4c3cnn4-c3ccccc3)sc2c1 | % | 104
c1ccc(COc2ccc(Nc3ncnc4c3cnn4-c3ccccc3)cc2)cc1 | % | 91.3
Clc1ccc(-n2ncc3c(Nc4ccc(OCc5ccccc5)cc4)ncnc32)cc1 | % | 80.6

Shifting focus to the compound that follows.
Challenge: Report growth at 10 µM for "O=C(NC1CCCCC1)c1ccc(Nc2ncnc3c2cnn3-c2ccccc2)cc1" please.
Response given: 30.3

====

Catalogue of growth at 10 µM readings, one per entry.
Tested on: SK-MEL-28
Assay: Cytotoxicity against human SK-MEL-28 cells assessed as cell growth at 10 uM after 72 hrs by SRB assay relative to control
Format: functional
Applied Conditions: SK-MEL-28, 72 h, read-out: Activity
All answers are understood in %, so give the number only.

Before answering, review these 3 worked examples.
Smiles Representation | growth at 10 µM (%)
c1ccc(COc2ccc(Nc3ncnc4c3cnn4-c3ccccc3)cc2)cc1 | 96
Cc1ccc2nc(Nc3ncnc4c3cnn4-c3ccccc3)sc2c1 | 95.3
O=C(NC1CCCCC1)c1ccc(Nc2ncnc3c2cnn3-c2ccccc2)cc1 | 62.2

Challenge: Report growth at 10 µM for "Clc1ccc(-n2ncc3c(Nc4ccc(OCc5ccccc5)cc4)ncnc32)cc1" please.
Response given: 90.4

Challenge: Try "O=c1sc2cc(Nc3ncnc4c3cnn4-c3ccccc3)ccc2n1Cc1ccc(Cl)cc1" next.
Response given: 90.1

====

Assayed Target: Aurora kinase A (Homo sapiens, UniProt O14965)
Sequence (O14965 whole entry): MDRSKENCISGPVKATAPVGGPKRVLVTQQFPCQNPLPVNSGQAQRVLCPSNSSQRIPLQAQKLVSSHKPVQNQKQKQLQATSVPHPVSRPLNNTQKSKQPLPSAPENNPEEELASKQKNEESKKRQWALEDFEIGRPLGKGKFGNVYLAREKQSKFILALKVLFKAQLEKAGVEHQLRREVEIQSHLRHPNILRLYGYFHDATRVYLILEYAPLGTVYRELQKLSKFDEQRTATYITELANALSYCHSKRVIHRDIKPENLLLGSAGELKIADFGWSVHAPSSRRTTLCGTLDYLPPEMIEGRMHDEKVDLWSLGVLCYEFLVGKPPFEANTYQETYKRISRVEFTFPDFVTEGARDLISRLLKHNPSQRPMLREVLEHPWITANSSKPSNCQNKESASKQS
Measured Attribute: IC50 (nM)
All answers are understood in nM, so give the number only.

Challenge: Report IC50 for "CC(C)n1ncc2cnc(Nc3cc(C(N)=O)n(C)c3)nc21" please.
Response given: 17

====

Assay: Cytotoxicity against human OVCAR3 cells assessed as cell growth at 10 uM after 72 hrs by SRB assay relative to control
Type: functional
Applied Conditions: OVCAR-3, 72 h, read-out: Activity
Measured Attribute: growth at 10 µM (%)
All answers are understood in %, so give the number only.

Smiles Representation | Test Value
O=c1sc2cc(Nc3ncnc4c3cnn4-c3ccccc3)ccc2n1Cc1ccc(Cl)cc1 | 86.6
Cc1ccc2nc(Nc3ncnc4c3cnn4-c3ccccc3)sc2c1 | 108
O=C(NC1CCCCC1)c1ccc(Nc2ncnc3c2cnn3-c2ccccc2)cc1 | 87.4
c1ccc(COc2ccc(Nc3ncnc4c3cnn4-c3ccccc3)cc2)cc1 | 113

Shifting focus to the compound that follows.
Challenge: Report growth at 10 µM for "Clc1ccc(-n2ncc3c(Nc4ccc(OCc5ccccc5)cc4)ncnc32)cc1" please.
Response given: 102

====

System: ACHN
Assay: Cytotoxicity against human ACHN cells assessed as cell growth at 10 uM after 72 hrs by SRB assay relative to control
Format: functional
Applied Conditions: read-out: Activity
Measured Attribute: growth at 10 µM (%)
All answers are understood in %, so give the number only.

Before answering, review these 4 worked examples.
Smiles Representation | Unit Tag | growth at 10 µM
c1ccc(COc2ccc(Nc3ncnc4c3cnn4-c3ccccc3)cc2)cc1 | % | 104
Cc1ccc2nc(Nc3ncnc4c3cnn4-c3ccccc3)sc2c1 | % | 107
O=C(NC1CCCCC1)c1ccc(Nc2ncnc3c2cnn3-c2ccccc2)cc1 | % | 54.3
O=c1sc2cc(Nc3ncnc4c3cnn4-c3ccccc3)ccc2n1Cc1ccc(Cl)cc1 | % | 74.6

Shifting focus to the molecule that follows.
Challenge: Report growth at 10 µM for "Clc1ccc(-n2ncc3c(Nc4ccc(OCc5ccccc5)cc4)ncnc32)cc1" please.
Response given: 98.6
